# ASSAY TARGET: KLK6 (Homo sapiens (Human), UniProt Q92876)
# PROTOCOL SUMMARY: KLK6 enzymatic inhibition test (fluorogenic/FRET peptide substrates)
# RUN PARAMETERS: read-out: % Inhibition at 10 μM
Where a name gives a salt, the structure may show the parent alone.

{"columns": ["MOLECULE", "UNIT ABBREVIATION", "inhibition at 10 µM"],
 "data": [
  ["CC(C)c1ccc(C(=O)Nc2ccc(CN)cc2)c(O)c1 [Compound 6, hydrochloride]", "%", 84.7],
  ["CC(C)(C)c1ccc(O)c(C(=O)Nc2ccc(CN)cc2)c1.Cl [Compound 1, hydrochloride, reference compound]", "%", 51],
  ["Cl.NCc1ccc(NC(=O)c2ccc3ccccc3c2O)cc1 [Compound 2, hydrochloride]", "%", 77.2],
  ["Cc1ccc(C(=O)Nc2ccc(CN)cc2)c(O)c1.Cl [Compound 4, hydrochloride]", "%", 68.8]
]}
